- METHOD NOTES: Pharmacokinetics in humans, MRTX1133 formulation, oral, single and multiple doses
- Assay type: in vivo
- MEASUREMENT CONDITIONS: human, plasma, po, 800 mg, multiple oral doses of 800 mg BID, fasted; 12 h; Mean of subjects; read-out: Plasma concentration
MEASURED PARAMETER: concentration at 12 h (ng/mL)
Output spec: scalar in ng/mL, unitless text.

Query: Could you tell me which concentration at 12 h is on file for "C#Cc1c(F)ccc2cc(O)cc(-c3ncc4c(N5C[C@H]6CC[C@@H](C5)N6)nc(OC[C@@]56CCCN5C[C@H](F)C6)nc4c3F)c12" ?
Response: 14.7
